System: NCI-H23 lung
Assay: NCI tumour cell line growth inhibition, 48 h
Catalogue of compounds with associated TGI

Example entries begin here.
# COMPOUND, TGI
records = [
    ("Cc1ccc(/C=C2\\N=C(N3CCCCC3)NC2=O)cc1", "> 100 µM"),
    ("CCOC(=O)C1(Cc2ccccc2)Cc2cc3c(cc2C1)CCC3", "> 100 µM"),
    ("Cc1ccc(/C=C2\\CN(C)CC3C(c4ccc(C)cc4)=C(C#N)C(=O)NC23)cc1 (stereo not given)", "> 50 µM"),
    ("O=C1C2=C(c3ccccc31)C(c1ccc(Cl)cc1)N1C(=O)CCSC1=N2 (stereo not given)", "> 100 µM"),
]

Proceed to the following item.
Enter TGI (test system NCI-H23 lung) for Cc1ccc(-c2sc(-c3ccc(C)cc3)c3c2C2CCC3C2)cc1
> 50 µM

Ref: PubChem BioAssay (NCI)
